The values you see were collected from the RNAGym collection of RNA variant scans (doi:10.7554/elife.90254).

B1: LINE1-full (parent)
chain: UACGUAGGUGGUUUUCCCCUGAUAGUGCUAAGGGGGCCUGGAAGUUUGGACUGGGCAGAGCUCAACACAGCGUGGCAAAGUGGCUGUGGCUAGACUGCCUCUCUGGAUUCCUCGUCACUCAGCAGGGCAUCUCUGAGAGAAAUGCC

variants of: B1; test: self-cleavage, relative activity (ratio to wild type); higher = more cleavage; in vitro, sequencing; the parent is a self-cleaving ribozyme
Task for the reader: assign each of the following variants its reported self-cleavage.
Give bare numbers.

Reference set, count: 5
INSERT INTO measurements (primary_sequence, assay_metric, data_value) VALUES
  ('UACGUAGGUGGUUUUCCCCUGAUAGUGCUAAGGGGGCCUGGAAGUUUGGACUGGGUAGAGCUCAACACAGCGCGGCAAAGUGGCUGUGGCUAGACUGCCUCUCUGGAUUCCUCGUCACUCAGCAGGGCAUCUCUGAGAGAAAUGCC [C56U U73C]', 'self-cleavage', 0.25),
  ('UACGUAGGAGGUUUUCCCCUGAUAGUGCUAAGGGGGCCUGGAAGUUUGGACUGGGCAGAGCUCAACACAGCGUGGCAAAGUGGCUGUGGCUAGACUGCCUCUUUGGAUUCCUCGUCACUCAGCAGGGCAUCUCUGAGAGAAAUGCC [U9A C103U]', 'self-cleavage', 0.84),
  ('UACGUAGGUGGUUUUCCCCUGAUAGUGCUAAGGGGGCCUGGAAGUUUGGACUGGGCAGAUCUCAACACAGCGUGGCAAGGUGGCUGUGGCUAGACUGCCUCUCUGGAUUCCUCGUCACUCAGCAGGGCAUCUCUGAGAGAAAUGCC [G60U A79G]', 'self-cleavage', 0.05),
  ('UACGUAGGUGGUUUUCCCCUGAUAGUGCUAAGGGGGCCUGGAAGUUUGGACCGGGCAGAGCUCAACACAGCGUGGCAAAGUGGCUGAGGCUAGACUGCCUCUCUGGAUUCCUCGUCACUCAGCAGGGCAUCUCUGAGAGAAAUGCC [U52C U87A]', 'self-cleavage', 0.08),
  ('UACGUAGGUGGUUUUCCCCUGAUAGGGCUAAGGGGGCCAGGAAGUUUGGACUGGGCAGAGCUCAACACAGCGUGGCAAAGUGGCUGUGGCUAGACUGCCUCUCUGGAUUCCUCGUCACUCAGCAGGGCAUCUCUGAGAGAAAUGCC [U26G U39A]', 'self-cleavage', 1.12);

Look up self-cleavage for the entries below, preserving their order.
1. UACGUAGGUGGUUUUCCCCUGAUAGUGCUAAGGGGACCUGGAAGUUUGGACUGGGCUGAGCUCAACACAGCGUGGCAAAGUGGCUGUGGCUAGACUGCCUCUCUGGAUUCCUCGUCACUCAGCAGGGCAUCUCUGAGAGAAAUGCC [G36A A57U]
2. UACGUAGGCGGUUCUCCCCUGAUAGUGCUAAGGGGGCCUGGAAGUUUGGACUGGGCAGAGCUCAACACAGCGUGGCAAAGUGGCUGUGGCUAGACUGCCUCUCUGGAUUCCUCGUCACUCAGCAGGGCAUCUCUGAGAGAAAUGCC [U9C U14C]
3. UACGUAGGUGGUUUUCCCCUGAUAGUGCUAAGGGGGCCUGGAAGUUUGGACUGGGCAGAGCUCAACACAGCGUGGCAAAGUGGCUGUGGCUAGACUGCCUCUCUGGAUUCCUCGUCACACAGCAGGGCAUCUCUGAGAGAAAUGCC [U119A]
4. UACGUAGGUGGUAUUCCCCUGAUAGUGCUAAGGGGGCCUGGAAGUUUGGACUGGGCAGAGCUCAACACAGCGUGGCAAAGUGGCUGUGGCUAGACUGCCUCUCUGGAUUCCUCGUCACUCAGCAGGGCAUCUCUGAGAGAGAUGCC [U13A A141G]
5. UACGUAGGUAGUUUUCCCCUGAUAGUGCUAAGGGGGCCUGGAAGUUUGGACUGGGCUGAGCUCAACACAGCGUGGCAAAGUGGCUGUGGCUAGACUGCCUCUCUGGAUUCCUCGUCACUCAGCAGGGCAUCUCUGAGAGAAAUGCC [G10A A57U]

1: 0.12; 2: 1.18; 3: 1.44; 4: 1.26; 5: 0.07

Look up self-cleavage for the entries below, preserving their order.
1. UACGUAGGUGGUUUUCCCCUGAUAGUGCUGAGGGGGCCUGGAAGUAUGGACUGGGCAGAGCUCAACACAGCGUGGCAAAGUGGCUGUGGCUAGACUGCCUCUCUGGAUUCCUCGUCACUCAGCAGGGCAUCUCUGAGAGAAAUGCC [A30G U46A]
2. UACGUAGGUGGUUUUCCCCUGUUAGUGCUAAGGGGGCCUGGAAGUUUGGACUGGGCAGAGCUCAACACAGCGUGGCAAAGUGGCUGUGGCUAGACUGCCUCUCUGGAUUCCUCGCCACUCAGCAGGGCAUCUCUGAGAGAAAUGCC [A22U U115C]
3. UACGUAGGUGGUUUUCCCCUGAUAGUGCUAAGGGGGCCAGGAAGUUUGGACUGGGCAGAGCUCAACACAGCGUGGCAAAGUGGCUGUGGCUAGACUGCCUCUUUGGAUUCCUCGUCACUCAGCAGGGCAUCUCUGAGAGAAAUGCC [U39A C103U]
4. UACGUAGGUGGUUUUCCCCUGAUAGUGCUAAGGGGGCCUGGAAGUUUGGACUGGCCAGAGCUCAACACAGCGUGGCAAAGUGGCUGCGGCUAGACUGCCUCUCUGGAUUCCUCGUCACUCAGCAGGGCAUCUCUGAGAGAAAUGCC [G55C U87C]

1: 0.84; 2: 1.77; 3: 1.74; 4: 0.37

Look up self-cleavage for the entries below, preserving their order.
1. UACGUAGGUGGUUUUCCCCCGAUAGUGCUAAGGGGGCCUGGAAGUUUGGACUGGGCAGAGCUCAACACAGCGUGGCAAAGUGGCUGUGGCUAGACUGCCUCUCUGGAUACCUCGUCACUCAGCAGGGCAUCUCUGAGAGAAAUGCC [U20C U109A]
2. UACGUAGGUGGUUUUCCCCUAAUAGUGCUAAGGGGGCCUGGAAGUUUGGACUGGGCAGAGCUCAACACAGCGUGGCAAAGUGGCUGUGGCCAGACUGCCUCUCUGGAUUCCUCGUCACUCAGCAGGGCAUCUCUGAGAGAAAUGCC [G21A U91C]
3. UACGUAGGUGGUUUUCCCCUGAUAGUGCAAAGGGGGCCUGGAAGUUUGGACUGGGCAGAGCUCUACACAGCGUGGCAAAGUGGCUGUGGCUAGACUGCCUCUCUGGAUUCCUCGUCACUCAGCAGGGCAUCUCUGAGAGAAAUGCC [U29A A64U]
4. UACGUAGGUGGUUUUCCCCUGAUAGUGCUAAGGGGGCCUGGAAGUUUGGACUGGGCAGAGCUCAACUCAGCGUGGCAAAGUGGCUGUGGCUAGACUGCCUCUCUGGAUUCCUCGUCACUCAGCAGGGCAUCUCCGAGAGAAAUGCC [A67U U134C]
5. UACGUAGGUGGUUUUCCCCUGACAGUGCUAAGGGGGCCUGGAAGUUUGGACUGGGCAGAGCUCAACACAGCGUGGCAAAGUGGCUGUGGCUAGACUGCCUCUCUGGAUUCCUCGUCACUCAGCAGGGCACCUCUGAGAGAAAUGCC [U23C U130C]
6. UACGUAGGUGGUUUUCCCCUGAUAGUGCUAAGGGGGCCUGGAAGUUUGGACUGGGCAGAGCUCAACACAGCGUGGCAAAGUGGCUGUGGCUAGACUGCCUCUCUGGAUUCCUCGUCACUCAGCAGGGCACCUCUGAGAGAAGUGCC [U130C A142G]
7. UACGUAGGUGGUUUUCCCCAGAUAGUGCUAAGGGGGCCUGGAAGUUUGGACUGGGCAGAGCUCAACACAGCGUGGCAAAGUGGCUGUGGCCAGACUGCCUCUCUGGAUUCCUCGUCACUCAGCAGGGCAUCUCUGAGAGAAAUGCC [U20A U91C]

1.54
0.35
0.25
0.16
1.76
1.37
0.65

self-cleavage in this record for UACGUAGGUGGUUUUCCCCUGAUAGUGCUAAGGGGGCCUGGAAGUUUGGACUGGGCAGAGCCCAACACAGCGUGGCAAAGUGGCUGUGGCUAGACUGCCUCUCCGGAUUCCUCGUCACUCAGCAGGGCAUCUCUGAGAGAAAUGCC [U62C U104C] : 0.07
